Source listed as patent US20120208781A1.

EXPERIMENTAL_DETAILS: Urine concentration analysis / urinary recovery of Compound 1 in beagle dogs
Type: in vivo
TEST_CONTEXT: male, beagle, dog, urine, iv, 10 mg/kg, 10 mg/kg IV, Dog 6001, 12 hr, read-out: Cmpd 1 urine concentration

>  <STRUCTURE_SMILES_STRING>
CN[C@@H]1[C@@H](O)[C@@H](O[C@@H]2[C@@H](O)[C@H](O[C@H]3OC(CNCCO)=CC[C@H]3N)[C@@H](N)C[C@H]2NC(=O)[C@@H](O)CCN)OC[C@]1(C)O

>  <concentration at 12 h / ng/mL>
47000

$$$$

###

EXPERIMENTAL_DETAILS: First-in-human phase 1 study: plasma pharmacokinetics of Compound 1
Assay type: in vivo
TEST_CONTEXT: both sexes, human, plasma, intravenous, 15 mg/kg, human plasma, single dose, 48 hours, Cohort 4 (15 mg/kg), compartmental (2) analysis; read-out: t½ beta (converted)
Text: The initial, first-in-human (FIH) phase 1 study was a double-blind, randomized, placebo-controlled, parallel-group, single- and multiple-dose-escalation study to assess the safety, tolerability, and pharmacokinetics of Compound 1 administered IV to healthy adult volunteers. In addition, the design of this FIH phase 1 study provided rationale and support for dosing for the proposed phase 2 study in patients with cUTI (see FIG. 11). […]

>  <STRUCTURE_SMILES_STRING>
CN[C@@H]1[C@@H](O)[C@@H](O[C@@H]2[C@@H](O)[C@H](O[C@H]3OC(CNCCO)=CC[C@H]3N)[C@@H](N)C[C@H]2NC(=O)[C@@H](O)CCN)OC[C@]1(C)O

>  <MEASURE_UNIT>
h

>  <half-life>
15

$$$$

###

EXPERIMENTAL_DETAILS: First-in-human phase 1 study: plasma pharmacokinetics of Compound 1
Format: in vivo
TEST_CONTEXT: both sexes, human, plasma, intravenous, 15 mg/kg, human plasma, single dose, 24 hours, Cohort 4 (15 mg/kg), compartmental (2) analysis, ± SE

>  <STRUCTURE_SMILES_STRING>
CN[C@@H]1[C@@H](O)[C@@H](O[C@@H]2[C@@H](O)[C@H](O[C@H]3OC(CNCCO)=CC[C@H]3N)[C@@H](N)C[C@H]2NC(=O)[C@@H](O)CCN)OC[C@]1(C)O

>  <Cmax>
116 µg/mL

$$$$

###

EXPERIMENTAL_DETAILS: Pharmacokinetics of Compound 1 after single bolus IV injection in beagle dogs (plasma)
Assay type: in vivo
TEST_CONTEXT: male, beagle, dog, plasma, iv, 10 mg/kg, beagle dogs, 10 mg/kg single bolus IV; Dog 603
PARAMETER: clearance (mL/min/kg)

>  <STRUCTURE_SMILES_STRING>
CN[C@@H]1[C@@H](O)[C@@H](O[C@@H]2[C@@H](O)[C@H](O[C@H]3OC(CNCCO)=CC[C@H]3N)[C@@H](N)C[C@H]2NC(=O)[C@@H](O)CCN)OC[C@]1(C)O

>  <PARAMETER>
clearance

>  <RECORDED_RESULT>
1.85

$$$$

###

EXPERIMENTAL_DETAILS: Pharmacokinetics of Compound 1 after single bolus IV injection in rats
Format: in vivo, Sprague Dawley rats
TEST_CONTEXT: Sprague Dawley, rat, plasma, iv, 10 mg/kg, 10 mg/kg single bolus IV, Mean ± SD, read-out: MRT0-∞
PARAMETER: MRT inf (min)

>  <STRUCTURE_SMILES_STRING>
CN[C@@H]1[C@@H](O)[C@@H](O[C@@H]2[C@@H](O)[C@H](O[C@H]3OC(CNCCO)=CC[C@H]3N)[C@@H](N)C[C@H]2NC(=O)[C@@H](O)CCN)OC[C@]1(C)O

>  <PARAMETER>
MRT inf

>  <MEASURE_UNIT>
min

>  <RECORDED_RESULT>
42

$$$$

###

EXPERIMENTAL_DETAILS: Pharmacokinetics of Compound 1 after single bolus IV injection in beagle dogs (plasma)
Format: in vivo
TEST_CONTEXT: male, beagle, dog, plasma, iv, 10 mg/kg, beagle dogs, 10 mg/kg single bolus IV; Dog 603
PARAMETER: C0 (µg/mL)

>  <STRUCTURE_SMILES_STRING>
CN[C@@H]1[C@@H](O)[C@@H](O[C@@H]2[C@@H](O)[C@H](O[C@H]3OC(CNCCO)=CC[C@H]3N)[C@@H](N)C[C@H]2NC(=O)[C@@H](O)CCN)OC[C@]1(C)O

>  <RECORDED_RESULT>
106

$$$$

###

EXPERIMENTAL_DETAILS: Pharmacokinetics of Compound 1 after single bolus IV injection in mice
Format: in vivo, CD-1 mice
TEST_CONTEXT: male, CD-1, mouse, plasma, 10 mg/kg single bolus IV
Protocol: Male CD-1 mice, Sprague Dawley rats, and beagle dogs were administered Compound 1 intravenously. Compound 1 was preformulated as a sterile isotonic solution of 10 mg/mL in PBS. […] Samples were centrifuged, and plasma was collected and transferred into a new tube and frozen at −80° C. until they were analyzed. Blood, urine, and kidney samples collected over 24 hours were analyzed for Compound 1 levels using LC-MS/MS. […]

>  <STRUCTURE_SMILES_STRING>
CN[C@@H]1[C@@H](O)[C@@H](O[C@@H]2[C@@H](O)[C@H](O[C@H]3OC(CNCCO)=CC[C@H]3N)[C@@H](N)C[C@H]2NC(=O)[C@@H](O)CCN)OC[C@]1(C)O

>  <AUC(0-inf)>
18500 ng·h/mL

$$$$

###

TEST_CONTEXT: rat, in vivo, 30 mg/kg
PARAMETER: Body weight Day 4 (g)

>  <STRUCTURE_SMILES_STRING>
NC[C@H]1O[C@H](O[C@H]2[C@H](O)[C@@H](O[C@H]3O[C@H](CO)[C@@H](O)[C@H](N)[C@H]3O)[C@H](N)C[C@@H]2N)[C@H](N)C[C@@H]1O

>  <RECORDED_RESULT>
270

$$$$

###

Tested on: rat kidney
EXPERIMENTAL_DETAILS: Rat nephrotoxicity model: kidney histopathology (H&E)
Type: in vivo, Sprague-Dawley rats
TEST_CONTEXT: rats, 14 d once-daily, 100 mg/kg
PARAMETER: Histopathology score (0 to 5 Scale): Regeneration

>  <MOLECULE>
CN[C@@H]1[C@@H](O[C@H]2O[C@H](CO)[C@@H](N)[C@H](O)[C@H]2O)OC2C[C@@H](N)[C@@H](O[C@H]3[C@H](O)[C@@H](O)[C@H](N)C[C@@H]3N)OC2[C@@H]1O (stereo partly shown) [Apramycin, apramycin]

>  <SUBJECT_OF_TEST>
rat kidney

>  <RECORDED_RESULT>
2.4 +/− 0.5

$$$$
>  <MOLECULE>
NC[C@@H]1O[C@H](O[C@H]2[C@@H](O)[C@H](O[C@@H]3[C@@H](O)[C@H](N)C[C@H](N)[C@H]3O[C@H]3O[C@H](CO)[C@@H](O)[C@H](O)[C@H]3N)O[C@@H]2CO)[C@H](N)[C@@H](O)[C@@H]1O [Paromomycin, paromomycin]

>  <SUBJECT_OF_TEST>
rat kidney

>  <RECORDED_RESULT>
4 +/− 0

$$$$
>  <MOLECULE>
NCC[C@H](O)C(=O)N[C@@H]1C[C@H](N)[C@@H](O[C@H]2O[C@H](CN)[C@@H](O)[C@H](O)[C@H]2O)[C@H](O)[C@H]1O[C@H]1O[C@H](CO)[C@@H](O)[C@H](N)[C@H]1O [amikacin]

>  <SUBJECT_OF_TEST>
rat kidney

>  <RECORDED_RESULT>
0.6 +/− 0.5

$$$$
>  <MOLECULE>
NC[C@H]1O[C@H](O[C@H]2[C@H](O)[C@@H](O[C@H]3O[C@H](CO)[C@@H](O)[C@H](N)[C@H]3O)[C@H](N)C[C@@H]2N)[C@H](N)C[C@@H]1O [Tobramycin, tobramycin]

>  <SUBJECT_OF_TEST>
rat kidney

>  <RECORDED_RESULT>
3 +/− 0.7

$$$$

###

EXPERIMENTAL_DETAILS: Pharmacokinetics of Compound 1 after single bolus IV injection in beagle dogs (plasma)
Type: in vivo
TEST_CONTEXT: male, beagle, dog, plasma, iv, 10 mg/kg, beagle dogs, 10 mg/kg single bolus IV; Mean ± SD; read-out: Vss

>  <STRUCTURE_SMILES_STRING>
CN[C@@H]1[C@@H](O)[C@@H](O[C@@H]2[C@@H](O)[C@H](O[C@H]3OC(CNCCO)=CC[C@H]3N)[C@@H](N)C[C@H]2NC(=O)[C@@H](O)CCN)OC[C@]1(C)O

>  <Vd / L>
0.164

$$$$

###

EXPERIMENTAL_DETAILS: Pharmacokinetics of Compound 1 after single bolus IV injection in rats
Format: in vivo, Sprague Dawley rats
TEST_CONTEXT: Sprague Dawley, rat, plasma, iv, 10 mg/kg, 10 mg/kg single bolus IV, Mean ± SD
PARAMETER: AUC(0-inf) (ng·h/mL)

>  <STRUCTURE_SMILES_STRING>
CN[C@@H]1[C@@H](O)[C@@H](O[C@@H]2[C@@H](O)[C@H](O[C@H]3OC(CNCCO)=CC[C@H]3N)[C@@H](N)C[C@H]2NC(=O)[C@@H](O)CCN)OC[C@]1(C)O

>  <MEASURE_UNIT>
ng·h/mL

>  <RECORDED_RESULT>
15700

$$$$
